The reader will find reported growth inhibition values listed item by item below.
# Test summary: NCI Yeast Anticancer Drug Screen. Data for the mec2-1 strain (AID 157)
# Particulars: S. cerevisiae mec2-1 strain, at 50.0 µM, stronger effect = higher value
This is part of a sample that, as a whole, favours compounds with a hit. Of some 79,000 tested, about 15% had one in any assay.
A number alone suffices; assume %.

For orientation, consider the following solved cases.
# Molecule, Measurement unit, Endpoint result
data = [
    ("CCC(C)(C)c1ccc(O)c(CNCCO)c1", "%", -2.55),
    ("Oc1ccccc1-c1cc(-c2ccccc2)nc(NCCCCCCNc2nc(-c3ccccc3)cc(-c3ccccc3O)n2)n1", "%", 3.9),
]

Lookup: Reported growth inhibition for CCOC(=O)C(=O)Nc1c(N(CC)CC)n2ccccc2nc1=O : what is it?
Found: -22.5

Lookup: Reported growth inhibition for Nc1c(-c2nc3ccccc3[nH]2)sc(=S)n1-c1ccccc1 : what is it?
Found: -21.4

Lookup: Reported growth inhibition for C=C(C)COB(OCC(=C)C)OCC(=C)C : what is it?
Found: -25.4

Lookup: Reported growth inhibition for CN(C)c1nc(O)cc(=O)[nH]1 : what is it?
Found: -0.35

###

# Test summary: NCI Yeast Anticancer Drug Screen. Data for the cln2 rad14 strain (AID 165);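 further: 0% = growth equal to vehicle treated cultures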
# Particulars: S. cerevisiae cln2 rad14 strain, at 50.0 µM, stronger effect = higher value
The panel holds about 79,000 compounds, 15% with a hit somewhere; the sample as a whole holds those more often.
The reader will find reported growth inhibition values listed item by item below.
A number alone suffices; assume %.

For orientation, consider the following solved cases.
# Compound, growth inhibition [%]
data = [
    ("N#Cc1ccc(Sc2ccccc2)cc1C#N", 10.2),
    ("COc1ccc(C2c3cc4c(cc3OC(C)(O)C2C)OCO4)c(OC)c1OC (configuration not stated)", -9.25),
    ("CC(=O)Nc1ccc(/C=N/NC(=O)/C=C/c2ccccc2)cc1", -5),
]

Lookup: Reported growth inhibition for CC1=CC(=O)CC(C(C)C)C1 (configuration not stated) : what is it?
Found: -5.95

Lookup: Reported growth inhibition for CC(C)CCNCCC(C)C : what is it?
Found: -36.3

Lookup: Reported growth inhibition for COC(=O)c1c(C=O)cccc1[N+](=O)[O-] : what is it?
Found: 0.7

Lookup: Reported growth inhibition for CCOC(=O)N1Cc2cc3ccc(OC)cc3nc2C1 : what is it?
Found: -10

Lookup: Reported growth inhibition for O=C1CSC(c2ccccc2)N1O (configuration not stated) : what is it?
Found: -51.5

Lookup: Reported growth inhibition for O=S1(=O)CCCCC1C(O)(c1ccccc1)c1ccccc1 (configuration not stated) : what is it?
Found: 95.5

Lookup: Reported growth inhibition for Cc1ccccc1NC(=S)NN : what is it?
Found: 16.6

Lookup: Reported growth inhibition for O=C(/C=C/c1ccccc1)NC(=S)Nc1cc(Cl)ccc1O : what is it?
Found: 5.5

Lookup: Reported growth inhibition for CCOC(=O)/C(N=O)=C(/C)O : what is it?
Found: -7.95

Lookup: Reported growth inhibition for CC(C)CN(CC(=O)NC(=O)c1ccccc1)CC(C)C : what is it?
Found: -37.9

Lookup: Reported growth inhibition for CC(C)Cc1cnc(CC(C)C)c(=O)[nH]1 : what is it?
Found: 10.8

###

# Test summary: NCI Yeast Anticancer Drug Screen. Data for the mlh1 rad18 strain (AID 175)
# Particulars: S. cerevisiae mlh1 rad18 strain growth inhibition; at 50.0 µM; stronger effect = higher value
Compounds without any hit were thinned out: in the full panel of roughly 79,000, 15% have a hit.
Test readout: growth inhibition (%)
A number alone suffices; assume %.

For orientation, consider the following solved cases.
# Compound, Test readout, Measurement unit, Endpoint result
measured = [
    ("COc1ccc(-c2oc3ccccc3c(=O)c2O)cc1OC", "growth inhibition", "%", -11.1),
    ("NC(=O)c1nnn(-c2ccccc2)n1", "growth inhibition", "%", -12.7),
]

Lookup: Reported growth inhibition for CN(C=O)c1ccc(C(=O)O)cc1 : what is it?
Found: 10.6

Lookup: Reported growth inhibition for O=[N+]([O-])c1ccccc1C=Nc1ccccc1O : what is it?
Found: 66

Lookup: Reported growth inhibition for Cc1c(-c2ccccc2)n[nH]c1-c1[nH]nc(-c2ccccc2)c1C : what is it?
Found: -19.1

###

The reader will find reported growth inhibition values listed item by item below.
# Test summary: NCI Yeast Anticancer Drug Screen. Data for the mec2-1 strain (AID 157)
# Particulars: S. cerevisiae mec2-1 strain, at 50.0 µM, stronger effect = higher value
This is part of a sample that, as a whole, favours compounds with a hit. Of some 79,000 tested, about 15% had one in any assay.
A number alone suffices; assume %.

# Compound, Endpoint result
rows = [
    ("COc1c2ccoc2c(OC)c2oc(=O)ccc12", -23.6),
    ("CCOC(=O)C1C/C(C)=C(/C)SCCCS1 (configuration not stated)", 3.2),
    ("CC(C)(C)c1cc(C#N)cc(Br)c1O", 98.7),
    ("CC1(C)C(=NNC(=O)C[N+](C)(C)C)C(C)(C)C1=NNC(=O)C[N+](C)(C)C", -11.9),
    ("CCOC(=O)c1c[nH]c2cc3c(cc2c1=O)CCS3", -57),
]

Lookup: Reported growth inhibition for COC(=O)c1c2c(cc3c1CC1(Cc4ccccc4C1)C3)CCC2 : what is it?
Found: 11.6

Lookup: Reported growth inhibition for O=c1[nH]c2cc(Cl)c(Cl)cc2c2ccc(Cl)cc12 : what is it?
Found: -5.55

Lookup: Reported growth inhibition for CC1=C(O)c2cc3c(cc2C(=O)C1=O)OCO3 : what is it?
Found: -0.95

Lookup: Reported growth inhibition for Nc1nc2ccccc2[nH]1 : what is it?
Found: -0.3

Lookup: Reported growth inhibition for COc1cc(/C=C(\C#N)C(N)=C(C#N)C#N)cc(O)c1O : what is it?
Found: -20.8

Lookup: Reported growth inhibition for CN(C(=O)C12C3C4C1C1C2C3C41C#N)C(C)(C)C (configuration not stated) : what is it?
Found: 6.15

Lookup: Reported growth inhibition for Cc1c(-c2ccccc2)n[nH]c1-c1[nH]nc(-c2ccccc2)c1C : what is it?
Found: -16.9

Lookup: Reported growth inhibition for O=c1[nH]nc(Cc2ccccc2)n1/N=C/c1cccnc1 : what is it?
Found: 30.9

Lookup: Reported growth inhibition for CCOC(=O)CNC1C(NC(C)=O)C(OC)OC2COC(c3ccccc3)OC21 (configuration not stated) : what is it?
Found: 6.6

Lookup: Reported growth inhibition for NC(=S)CNC(=O)c1ccccc1 : what is it?
Found: -33.1

Lookup: Reported growth inhibition for CC1=C2C(=O)O[C@@H](c3ccoc3)[C@]2(C)CCC1 : what is it?
Found: -6.8

Lookup: Reported growth inhibition for N#Cc1ccc(C=NC23CC4CC(CC(C4)C2)C3)cc1 : what is it?
Found: -10

###

# Test summary: NCI Yeast Anticancer Drug Screen. Data for the rad50 strain (AID 155);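 further: 0% = growth of vehicle-only cultures of the same strain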
# Particulars: S. cerevisiae rad50 strain growth inhibition; at 50.0 µM; stronger effect = higher value
The panel holds about 79,000 compounds, 15% with a hit somewhere; the sample as a whole holds those more often.
Test readout: growth inhibition (%)
A number alone suffices; assume %.

For orientation, consider the following solved cases.
# Molecule, Test readout, Endpoint result
data = [
    ("COc1cc(OC)cc(OCc2nc3cc(C(F)(F)F)ccc3nc2-c2ccccc2)c1", "growth inhibition", -17.8),
    ("Cc1ccc2nc(-c3ccc(N)cc3)sc2c1S(=O)(=O)O", "growth inhibition", 3.3),
    ("O=C(c1ccccc1)c1cc(Cl)ccc1NCC(O)COc1ccc(Cl)cc1 (stereo unspecified)", "growth inhibition", -12.8),
    ("O=C(/C=C\\c1ccc(Cl)cc1)c1ccccc1", "growth inhibition", -23.1),
    ("C=C1CC(CCCCC2CC(=C)C(=O)O2)OC1=O (stereo unspecified)", "growth inhibition", 1.45),
]

Consider the record given below.
Lookup: Reported growth inhibition for CN(C)C(=O)NCc1cccnc1 : what is it?
Found: -21.8

###

# Test summary: NCI Yeast Anticancer Drug Screen. Data for the mlh1 rad18 strain (AID 175)
# Particulars: S. cerevisiae mlh1 rad18 strain growth inhibition; at 50.0 µM; stronger effect = higher value
This is part of a sample that, as a whole, favours compounds with a hit. Of some 79,000 tested, about 15% had one in any assay.
Test readout: growth inhibition (%)
A number alone suffices; assume %.

For orientation, consider the following solved cases.
# Molecule, growth inhibition, %
measured = [
    ("COC(=O)C1(CC(=O)c2ccc(C)cc2)NC(=S)NC(=O)C1C#N (stereo unspecified)", -0.85),
    ("COC(=O)c1nnn(-c2ccc(C)c(C)c2)c1C(=O)c1ccccc1", 29.1),
]

Lookup: Reported growth inhibition for Cn1c(Cl)c(C=O)c(=O)n(C)c1=O : what is it?
Found: -2.55

Lookup: Reported growth inhibition for Oc1cc(CN2COc3ccccc32)c(O)cc1CNC1CCCCC1 : what is it?
Found: -12.3

Lookup: Reported growth inhibition for c1ccc2c(c1)NC1C3(CCC4CCCCC241)SCCS3 (stereo unspecified) : what is it?
Found: -1.15

Lookup: Reported growth inhibition for Cc1cccnc1N : what is it?
Found: 14.7

Lookup: Reported growth inhibition for Cn1c(=Nc2ccc(Cl)cc2)sc2ccccc21 : what is it?
Found: -21.9

Lookup: Reported growth inhibition for OCc1c(CO)c(-c2ccc(Cl)cc2)n2c1CCC2 : what is it?
Found: 34.5

Lookup: Reported growth inhibition for O=C(O)CCC(=O)Nc1ccc(C(=O)O)c(O)c1 : what is it?
Found: -17.9

Lookup: Reported growth inhibition for CC(=O)NC(NC(C)=O)c1ccccc1 : what is it?
Found: -20.5

Lookup: Reported growth inhibition for CC(C#N)NC(=O)NC(C)C(N)=O (stereo unspecified) : what is it?
Found: -27.7

Lookup: Reported growth inhibition for CC12CCC3c4ccc(O)cc4C(=O)CC3C1CCC2O (stereo unspecified) : what is it?
Found: -17.6

Lookup: Reported growth inhibition for O=C1C=CC(=NN=c2c3ccccc3oc3ccccc23)C=C1 : what is it?
Found: 0.1
